Test: Cytotoxicity against human CEM cells
Format: cell-based, CCRF-CEM
Settings: CEM (CCRF-CEM) cells
Listed below: log10 of CC50 values for each entry.
Reminder: these figures are log10 of reported CC50, in nM before transformation.

Recorded log10 of CC50, per entry:
[[record]]
compound = "C[C@H](Cn1cnc2c(N)ncnc21)OCP(=O)(N[C@@H](C)C(=O)OCC(C)(C)C)Oc1ccccc1 (stereo partly drawn)"
parameter = "log10 of CC50"
value = 3.36

[[record]]
compound = "C[C@H](NP(=O)(COCCn1cnc2c(N)ncnc21)Oc1cccc2ccccc12)C(=O)OCC(C)(C)C (stereo partly drawn)"
parameter = "log10 of CC50"
value = 1.65

[[record]]
compound = "C[C@H](Cn1cnc2c(N)ncnc21)OCP(=O)(N[C@@H](C)C(=O)OCC(C)(C)C)Oc1cccc2ccccc12 (stereo in doubt; 15)"
parameter = "log10 of CC50"
value = 3.84

[[record]]
compound = "C[C@H](Cn1cnc2c(N)ncnc21)OCP(=O)(N[C@@H](C)C(=O)OCc1ccccc1)Oc1cccc2ccccc12 (stereo partly drawn)"
parameter = "log10 of CC50"
value = 3.64


Lookup result for C[C@H](Cn1cnc2c(N)ncnc21)OCP(=O)(N[C@@H](C)C(=O)OCC(C)(C)C)Oc1cccc2c1CCCC2 (stereo partly drawn) ; measured log10 of CC50: 3.30

Record `C[C@H](Cn1cnc2c(N)ncnc21)OCP(=O)(N[C@@H](C)C(=O)OCC(C)(C)C)N[C@@H](C)C(=O)OCC(C)(C)C` , field log10 of CC50: 3.08

The reported log10 of CC50 of the compound `C[C@H](NP(=O)(COCCn1cnc2c(N)ncnc21)N[C@@H](C)C(=O)OCc1ccccc1)C(=O)OCc1ccccc1` was 2.15

Source listed as ChEMBL document CHEMBL3232902.
